// TGI lookup, one value per entry
tested on: LOX IMVI melanoma; assay: NCI tumour cell line growth inhibition, 48 h

# molecule, lt-gt-eq, TGI, µM
data = [
    ("CCCCCCCCCCC(=O)CCCCCCC(=O)O", "=", 31.4),
    ("Cc1ccc(S(=O)(=O)NC(=O)Nc2c(S(N)(=O)=O)cc(S(N)(=O)=O)c(Cl)c2Cl)cc1", ">", 100),
    ("Cc1cccc(C(C)(C)C)c1NC(=O)C(C#N)C1=C(Cl)C(=O)c2ccccc2C1=O (stereo not drawn)", "=", 30.7),
]

---

system: NCI-H226 lung; experiment: NCI tumour cell line growth inhibition, 48 h

# molecule, TGI
rows = [
    ("CNC(=O)c1cc(Oc2ccc3nc(NC(=O)Nc4ccc(CN5CCOCC5)c(C(F)(F)F)c4)sc3c2)ccn1", "4.3 µM"),
    ("CCOC(=O)C1(CC(=O)O)CCCC1=O (stereo not drawn)", "> 100 µM"),
    ("COC(=O)[C@H](CNC(=O)/C=C/c1ccc(OC(C)=O)c(OC(C)=O)c1)NC(=O)/C=C/c1ccc(OC(C)=O)c(OC(C)=O)c1", "> 100 µM"),
]
